Hello, the source for this data is the supplement of paper PMC10567573, in case you need it.

B1: TSPAN10 (parent)
chain: EGCGPPLRRWLRANLAASGGYAIA

variants of: B1; experiment: protein stability index of a GFP-peptide fusion (GPS, HEK-293T) (PSI 1-6); higher = more stable; conditions: c terminus: a fixed tail appended;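 note: lentivirally expressed fusions sorted by FACS into six bins by GFP to DsRed ratio, PSI derived from sequencing read proportions per bin multiplied by bin number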

{"mutant.code": "A16C", "protein stability index": 1.78}
{"mutant.code": "W10K", "protein stability index": 2.09}
{"mutant.code": "P6L", "protein stability index": 1.03}
{"mutant.code": "A24S", "protein stability index": 1.98}
{"mutant.code": "A13R", "protein stability index": 1.62}
{"mutant.code": "L7M", "protein stability index": 2.39}
{"mutant.code": "A17R", "protein stability index": 1.44}
{"mutant.code": "R9S", "protein stability index": 2.33}
{"mutant.code": "P5R", "protein stability index": 2.48}
{"mutant.code": "L11Q", "protein stability index": 3.13}
{"mutant.code": "G2I", "protein stability index": 2.15}
{"mutant.code": "R9E", "protein stability index": 2.28}
{"mutant.code": "Y21I", "protein stability index": 1.81}
{"mutant.code": "L11Y", "protein stability index": 1.9}
{"mutant.code": "A13E", "protein stability index": 3.18}
{"mutant.code": "P6V", "protein stability index": 1.89}
{"mutant.code": "R8H", "protein stability index": 1.58}
{"mutant.code": "A16S", "protein stability index": 1.68}
{"mutant.code": "A16Y", "protein stability index": 1.48}
{"mutant.code": "N14Y", "protein stability index": 1.46}
{"mutant.code": "I23K", "protein stability index": 2.96}
{"mutant.code": "P5E", "protein stability index": 3.75}
{"mutant.code": "S18M", "protein stability index": 1.6}
{"mutant.code": "C3G", "protein stability index": 2.11}
{"mutant.code": "P6A", "protein stability index": 2.2}
{"mutant.code": "R12T", "protein stability index": 1.82}
{"mutant.code": "I23S", "protein stability index": 2.63}
{"mutant.code": "N14H", "protein stability index": 2.48}
{"mutant.code": "N14P", "protein stability index": 2.06}
{"mutant.code": "A17M", "protein stability index": 2.2}
{"mutant.code": "Y21F", "protein stability index": 1.85}
{"mutant.code": "L7S", "protein stability index": 2.29}
{"mutant.code": "P6T", "protein stability index": 2.46}
{"mutant.code": "A17T", "protein stability index": 1.4}
{"mutant.code": "E1L", "protein stability index": 1.81}
{"mutant.code": "R9I", "protein stability index": 2.9}
{"mutant.code": "G19Y", "protein stability index": 1.93}
{"mutant.code": "G20V", "protein stability index": 2.21}
{"mutant.code": "A22Y", "protein stability index": 2.04}
{"mutant.code": "L15C", "protein stability index": 1.49}
{"mutant.code": "W10C", "protein stability index": 2.03}
{"mutant.code": "S18C", "protein stability index": 2.15}
{"mutant.code": "L7N", "protein stability index": 2.67}
{"mutant.code": "W10N", "protein stability index": 2.55}
{"mutant.code": "P6W", "protein stability index": 1.5}
{"mutant.code": "A17E", "protein stability index": 2.63}
{"mutant.code": "A17W", "protein stability index": 2.03}
{"mutant.code": "P5M", "protein stability index": 1.65}
{"mutant.code": "G19Q", "protein stability index": 1.43}
{"mutant.code": "W10D", "protein stability index": 3.25}
{"mutant.code": "A24H", "protein stability index": 1.68}
{"mutant.code": "S18G", "protein stability index": 1.98}
{"mutant.code": "L15T", "protein stability index": 1.95}
{"mutant.code": "R12P", "protein stability index": 2.5}
{"mutant.code": "A16V", "protein stability index": 1.65}
{"mutant.code": "A22R", "protein stability index": 1.68}
{"mutant.code": "R12Y", "protein stability index": 2.84}
{"mutant.code": "S18F", "protein stability index": 2.57}
{"mutant.code": "C3Q", "protein stability index": 3.09}
{"mutant.code": "W10T", "protein stability index": 3.01}
{"mutant.code": "G4I", "protein stability index": 2.28}
{"mutant.code": "C3E", "protein stability index": 2.82}
{"mutant.code": "G20C", "protein stability index": 1.56}
{"mutant.code": "N14M", "protein stability index": 2.08}
{"mutant.code": "A17V", "protein stability index": 1.4}
{"mutant.code": "L15Q", "protein stability index": 3.2}
{"mutant.code": "G2A", "protein stability index": 2}
{"mutant.code": "S18I", "protein stability index": 1.44}
{"mutant.code": "W10P", "protein stability index": 3.39}
{"mutant.code": "A16R", "protein stability index": 1.68}
{"mutant.code": "P5K", "protein stability index": 2.03}
{"mutant.code": "L15V", "protein stability index": 2.07}
{"mutant.code": "L7H", "protein stability index": 2.39}
{"mutant.code": "G20S", "protein stability index": 2.17}
{"mutant.code": "Y21A", "protein stability index": 2.65}
{"mutant.code": "R8M", "protein stability index": 2.16}
{"mutant.code": "R12F", "protein stability index": 2.29}
{"mutant.code": "A22N", "protein stability index": 2.43}
{"mutant.code": "C3D", "protein stability index": 2.37}
{"mutant.code": "L15E", "protein stability index": 2.96}
{"mutant.code": "G4Q", "protein stability index": 2}
{"mutant.code": "S18D", "protein stability index": 2.71}
{"mutant.code": "A16Q", "protein stability index": 1.57}
{"mutant.code": "A22C", "protein stability index": 1.38}
{"mutant.code": "P5Q", "protein stability index": 1.79}
{"mutant.code": "R12D", "protein stability index": 1.8}
{"mutant.code": "A16D", "protein stability index": 2.12}
{"mutant.code": "I23N", "protein stability index": 2.92}
{"mutant.code": "A16W", "protein stability index": 1.45}
{"mutant.code": "L7R", "protein stability index": 3.1}
{"mutant.code": "E1Y", "protein stability index": 1.97}
